Value source: paper PMC6017844

- Test System: human recombinant MMP-9 (Homo sapiens, UniProt P14780)
- Construct: using 10 nM of proteolytic enzyme (catalytic domains of MMP-9 (Biomol, Inc.)); purchased Biomol, Inc
- Sequence (P14780 107-444 limits assumed): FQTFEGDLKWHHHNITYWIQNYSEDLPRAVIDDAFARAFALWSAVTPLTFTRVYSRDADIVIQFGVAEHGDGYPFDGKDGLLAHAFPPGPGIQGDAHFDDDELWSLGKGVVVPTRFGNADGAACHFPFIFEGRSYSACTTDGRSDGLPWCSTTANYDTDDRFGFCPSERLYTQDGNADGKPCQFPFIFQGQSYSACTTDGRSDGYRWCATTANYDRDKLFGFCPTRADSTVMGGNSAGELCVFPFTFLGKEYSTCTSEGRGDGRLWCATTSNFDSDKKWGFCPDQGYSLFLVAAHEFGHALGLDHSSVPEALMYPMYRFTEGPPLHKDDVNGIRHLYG
- Assay Remarks: MMP-9 fluorimetric assay
- Type: biochemical
- Assay Conditions: catalytic domain of MMP-9 10 nM, substrate 350 nM, 25 °C, pH 7; mean ± SD (n = 3); n.a. = not active; read-out: IC50 Value
Entries whose IC50 is below 8 µM take True; entries at or above 8 µM take False.

These solved cases illustrate the format of a correct answer.
# TODO verify IC50 < 8 µM strictly for this molecule: CC(C(=O)NN1C(=O)CSC1c1ccc(F)cc1)c1nsc2ccccc12 (centres unmarked)
False

Next up: CC(C(=O)NN1C(=O)CSC1c1ccc(O)cc1)c1nsc2ccccc12 (centres unmarked)
True

Next up: CC(C(=O)NN1C(=O)CSC1c1ccc(Cl)cc1)c1nsc2ccccc12 (centres unmarked)
False

Next up: Cc1ccc(C2SCC(=O)N2NC(=O)C(C)c2nsc3ccccc23)cc1 (centres unmarked)
False

Next up: CC(C(=O)NN1C(=O)CSC1c1ccc([N+](=O)[O-])cc1)c1nsc2ccccc12 (centres unmarked)
False

Others:
# TODO verify IC50 < 8 µM strictly for this molecule: COc1ccc(C2SCC(=O)N2NC(=O)C(C)c2nsc3ccccc23)cc1 (centres unmarked)
True

Next up: COc1ccc(S(=O)(=O)N(CC(=O)NO)CC(C)C)cc1 [NNGH, reference compound]
True
